Can you tell me peptide exchange yield for the items I'm about to list?
biological target: T1, HLA-A*02:01 (peptide-receptive MHC class I molecule of the UV-ligand exchange assay) (human); experiment: UV-ligand exchange, anti-b2m ELISA; peptide exchange yield grade (>=10% = +; >=20% = ++; >=50 = +++; >=75% = ++++)
T1 construct: MHC monomer first loaded with a UV-sensitive peptide (not identified) that is cleaved by UV light and exchanged for the test peptide; captured on streptavidin plates

What does the data say about its peptide exchange yield? Entry: VAIGGVDGNVRL (synthetic peptide; source gene WDR1) [VAIGGVDGNVRL (SEQ ID NO: 52)]
20 to 50%

What does the data say about its peptide exchange yield? Entry: ATGNDRKEAAENSL (synthetic peptide; source gene YWHAE) [ATGNDRKEAAENSL (SEQ ID NO: 44)]
50 to 75%

What does the data say about its peptide exchange yield? Entry: MISRTPEV (synthetic peptide; source genes F7, IGHV4-31, IGHG1, IGHG2, IGHG3, IGHG4, IGHM) [MISRTPEV (SEQ ID NO: 17)]
20 to 50%
